Target: CCDC6-RET (Homo sapiens, UniProt P07949+Q16204+Q96SW2)
Construct: CCDC6 (natural N-terminal fusion partner, UniProt Q16204); endogenous in cells; host or cells: TPC-1 (parental, papillary thyroid carcinoma)
Sequence (Q16204+P07949 fused): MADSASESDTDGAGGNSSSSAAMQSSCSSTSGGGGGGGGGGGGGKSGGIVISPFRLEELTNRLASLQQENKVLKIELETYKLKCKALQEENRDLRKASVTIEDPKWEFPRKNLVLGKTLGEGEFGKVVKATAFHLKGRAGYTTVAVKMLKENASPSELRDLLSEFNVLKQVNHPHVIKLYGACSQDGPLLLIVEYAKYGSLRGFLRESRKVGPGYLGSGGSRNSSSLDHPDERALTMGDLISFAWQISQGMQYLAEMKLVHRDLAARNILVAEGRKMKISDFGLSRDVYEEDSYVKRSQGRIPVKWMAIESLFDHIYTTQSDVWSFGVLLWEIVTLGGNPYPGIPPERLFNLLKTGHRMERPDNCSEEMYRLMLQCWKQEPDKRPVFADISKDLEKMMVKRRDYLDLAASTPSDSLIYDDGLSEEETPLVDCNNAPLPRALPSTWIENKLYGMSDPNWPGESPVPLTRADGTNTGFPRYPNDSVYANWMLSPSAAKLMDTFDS
Sequence (Q96SW2 whole entry, the tested form may be a part): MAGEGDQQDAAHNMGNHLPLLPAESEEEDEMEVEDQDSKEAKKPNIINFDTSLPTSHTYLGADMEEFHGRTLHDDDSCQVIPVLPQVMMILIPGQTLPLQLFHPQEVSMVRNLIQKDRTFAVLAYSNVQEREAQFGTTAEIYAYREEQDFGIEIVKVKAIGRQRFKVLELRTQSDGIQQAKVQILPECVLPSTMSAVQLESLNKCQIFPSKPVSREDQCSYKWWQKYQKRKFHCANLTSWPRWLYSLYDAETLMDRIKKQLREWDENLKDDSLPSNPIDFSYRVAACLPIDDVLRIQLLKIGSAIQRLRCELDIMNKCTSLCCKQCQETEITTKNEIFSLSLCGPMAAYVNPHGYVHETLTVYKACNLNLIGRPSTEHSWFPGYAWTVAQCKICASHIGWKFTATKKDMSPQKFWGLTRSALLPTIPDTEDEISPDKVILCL
Sequence (Q16531 whole entry partner, the tested form may be a part): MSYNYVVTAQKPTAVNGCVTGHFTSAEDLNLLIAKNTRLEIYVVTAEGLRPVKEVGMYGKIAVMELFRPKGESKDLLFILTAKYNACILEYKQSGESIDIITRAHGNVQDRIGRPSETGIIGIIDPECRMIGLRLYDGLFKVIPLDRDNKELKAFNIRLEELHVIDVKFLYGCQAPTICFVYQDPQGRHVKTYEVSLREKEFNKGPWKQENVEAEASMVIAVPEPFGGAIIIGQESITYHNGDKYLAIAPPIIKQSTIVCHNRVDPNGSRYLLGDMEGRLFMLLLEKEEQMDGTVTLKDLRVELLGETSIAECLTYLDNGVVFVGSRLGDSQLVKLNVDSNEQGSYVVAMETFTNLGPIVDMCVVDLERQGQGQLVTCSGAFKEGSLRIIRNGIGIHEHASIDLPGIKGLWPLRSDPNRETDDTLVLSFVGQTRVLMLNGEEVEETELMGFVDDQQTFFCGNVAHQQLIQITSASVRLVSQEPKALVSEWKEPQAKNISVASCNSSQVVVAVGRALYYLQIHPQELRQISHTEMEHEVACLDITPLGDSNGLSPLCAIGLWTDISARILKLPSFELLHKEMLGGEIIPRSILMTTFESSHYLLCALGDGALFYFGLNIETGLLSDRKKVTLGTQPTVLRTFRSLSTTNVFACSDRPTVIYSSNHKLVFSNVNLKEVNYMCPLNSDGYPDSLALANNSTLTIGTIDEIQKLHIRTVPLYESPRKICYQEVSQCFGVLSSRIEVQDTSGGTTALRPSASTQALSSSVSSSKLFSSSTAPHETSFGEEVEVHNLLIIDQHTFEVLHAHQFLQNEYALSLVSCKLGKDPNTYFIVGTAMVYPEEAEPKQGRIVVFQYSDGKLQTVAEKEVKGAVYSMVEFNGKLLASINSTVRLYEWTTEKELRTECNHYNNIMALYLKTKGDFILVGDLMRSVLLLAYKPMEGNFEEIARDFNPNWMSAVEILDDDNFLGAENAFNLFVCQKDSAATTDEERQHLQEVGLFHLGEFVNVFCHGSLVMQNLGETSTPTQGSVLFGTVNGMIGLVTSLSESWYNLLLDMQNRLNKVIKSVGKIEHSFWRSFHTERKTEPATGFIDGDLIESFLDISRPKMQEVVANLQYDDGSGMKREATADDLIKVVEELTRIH
Test: Cellular RET degradation, AlphaLISA, TPC-1 cell line
Type: cell-based
Settings: TPC1, human, 24 h, read-out: Cell Density TPC-1/CCDC6-RET Ymax %

{"MOLECULE": "CCOc1cc(-c2ccc(N3CCC(CN4CCN(CC5CCN(C(=O)c6ccc7c(c6)C(=O)N(C6CCC(=O)NC6=O)C7)CC5)CC4)(NC(=O)c4cc(F)ccc4F)CC3)nc2)c2c(C#N)cnn2c1 (stereo not shown) [Example 110]", "Dmax": "60 to 90%"}
{"MOLECULE": "CCOc1cc(-c2ccc(N3CCC(Cc4ccccc4)(NC(=O)CN4CCC(CN5CCC(c6ccc7c(c6)C(=O)N(C6CCC(=O)NC6=O)C7)CC5)CC4)CC3)nc2)c2c(C#N)cnn2c1 (stereo not shown) [Example 57]", "Dmax": "60 to 90%"}
{"MOLECULE": "CCOc1cc(-c2ccc(N3CCC(CN4CCC(N5CC(N6CCC(c7ccc8c(c7)C(=O)N(C7CCC(=O)NC7=O)C8)CC6)C5)CC4)(NC(=O)c4cc(F)ccc4F)CC3)nc2)c2c(C#N)cnn2c1 (stereo not shown) [Example 71]", "Dmax": "> 90%"}
{"MOLECULE": "CCOc1cc(-c2ccc(N3CCC(COCc4cn(CCN5CCN(c6ccc7c(c6)CN(C6CCC(=O)NC6=O)C7=O)CC5)nn4)(NC(=O)c4cc(F)ccc4F)CC3)nc2)c2c(C#N)cnn2c1 (stereo not shown) [Example 49]", "Dmax": "> 90%"}
{"MOLECULE": "CCOc1cc(-c2ccc(N3CCC(CN4CCN(C(=O)CCCCN5CCN(c6ccc7c(c6)CN(C6CCC(=O)NC6=O)C7=O)CC5)CC4)(NC(=O)c4cc(F)ccc4F)CC3)nc2)c2c(C#N)cnn2c1 (stereo not shown) [Example 5]", "Dmax": "> 90%"}
{"MOLECULE": "CCOc1cc(-c2ccc(N3CCC(CN(C(=O)CCCCCCN4CCN(c5ccc6c(c5)CN(C5CCC(=O)NC5=O)C6=O)CC4)C(C)C)(NC(=O)c4cc(F)ccc4F)CC3)nc2)c2c(C#N)cnn2c1 (stereo not shown) [Example 165]", "Dmax": "> 90%"}
{"MOLECULE": "CCOc1cc(-c2ccc(N3CCC(C)(CN4CCN(C(=O)CCCCCCN5CCN(c6ccc7c(c6)CN(C6CCC(=O)NC6=O)C7=O)CC5)CC4)CC3)nc2)c2c(C#N)cnn2c1 (stereo not shown) [Example 128]", "Dmax": "60 to 90%"}
{"MOLECULE": "CCOc1cc(-c2ccc(N3CCC(CN(C)C(=O)CCCCN4CCC(c5ccc6c(c5)CN(C5CCC(=O)NC5=O)C6=O)CC4)(NC(=O)c4cc(F)ccc4F)CC3)nc2)c2c(C#N)cnn2c1 (stereo not shown) [Example 139]", "Dmax": "> 90%"}
{"MOLECULE": "CCOc1cc(-c2ccc(N3CCC(CN4CCN(C(=O)CCN5CC(c6ccc7c(c6)CN(C6CCC(=O)NC6=O)C7=O)C5)CC4)(NC(=O)c4cc(F)ccc4F)CC3)nc2)c2c(C#N)cnn2c1 (stereo not shown) [Example 119]", "Dmax": "> 90%"}
{"MOLECULE": "CCOc1cc(-c2ccc(N3CCC(COCCN4CCN(C(=O)CCN5CCC(c6ccc7c(c6)C(=O)N(C6CCC(=O)NC6=O)C7)CC5)CC4)(NC(=O)c4cc(F)ccc4F)CC3)nc2)c2c(C#N)cnn2c1 (stereo not shown) [Example 32]", "Dmax": "60 to 90%"}

Ref: patent US20260356830A1
